Reported EC50 values for a set of compounds
protocol_summary: growth suppression of beta-catenin-knockout colon cells, dose response, cell-based, HCT116, human colon tumor (AID 1045);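 also: HCT116 colon tumor cells with beta catenin knocked out; cells exposed to compound for 60 hours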
Assay type: functional
Activity calls are given as the source filed them. No rule for the calls is given here.
readout_label: EC50

| compound | test_value |
| --- | --- |
| Cc1cccc(N2CCN(c3nc4ccccc4n4cnnc34)CC2)c1C | 25.4 µM (active) |
| Cc1ccc(NC(=O)c2cc(-c3ccccc3)nn2-c2ccccc2)c(Br)c1 | 23.5 µM (active) |
| N=C(NOC(=O)C12CC3CC(CC(C3)C1)C2)c1ccccc1 | 90.5 µM (active) |
| C#CC[N+](C)(C)CCCCCCCCCCCC | 3.33 µM (active) |
| CCOC(=O)/C(=C\c1ccc([N+](=O)[O-])cc1)C(=O)c1cc(C(C)=O)c(Nc2ccccc2)s1 | 3.81 µM (active) |
| C=C(CCC(=O)c1ccccc1)C(=O)c1ccccc1 | 8.26 µM (active) |
| CC1Cc2ccccc2N1C(=O)CSc1n[nH]c2c3cc(F)ccc3nc-2n1 (configuration not stated) | 25 µM (active) |
